MEASURED_ON: UGT1A1 (Homo sapiens, UniProt P22309)
Sequence (P22309 26-533): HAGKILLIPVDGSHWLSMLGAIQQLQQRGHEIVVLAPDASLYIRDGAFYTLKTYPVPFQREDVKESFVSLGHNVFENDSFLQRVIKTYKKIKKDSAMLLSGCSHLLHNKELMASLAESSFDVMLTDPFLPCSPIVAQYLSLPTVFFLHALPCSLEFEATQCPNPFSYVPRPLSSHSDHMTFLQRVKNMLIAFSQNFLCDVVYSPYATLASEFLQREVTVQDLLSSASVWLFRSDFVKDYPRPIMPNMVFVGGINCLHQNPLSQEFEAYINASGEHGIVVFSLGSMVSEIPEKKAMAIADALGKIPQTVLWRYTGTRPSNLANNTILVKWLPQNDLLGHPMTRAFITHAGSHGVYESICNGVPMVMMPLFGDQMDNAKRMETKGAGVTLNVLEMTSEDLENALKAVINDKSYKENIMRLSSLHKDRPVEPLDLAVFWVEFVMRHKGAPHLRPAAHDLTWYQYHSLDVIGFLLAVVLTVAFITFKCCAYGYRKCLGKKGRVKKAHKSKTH
ASSAY_OVERVIEW: in vitro
CONDITION_SUMMARY: pH 7.5, Inhibition of raloxifene glucuronidation, G2, UGT1A1
QUANTITY_MEASURED: activity at 15 min, 5 µM (%)
The reply should be a number in %, with the unit left off.

q: State its activity at 15 min, 5 µM for this compound: O=c1c(O)c(-c2ccc(O)c(O)c2)oc2cc(O)cc(O)c12 [Quercetin]
a: 70
